Listed below: microsomal CLint at 1 uM values for each entry.
# ASSAY NAME: Metabolic stability in human hepatic microsome
# Type: in vitro ADME
# EXPERIMENTAL PARAMETERS: human, microsomes, pH 7.4, CL NADPH(+)
Positions of bridges follow the written chain, without caps; N, C: chain ends. Non-standard residues stand in square brackets, D forms with d. Residues, ends and D or L forms follow the SMILES beside them. *: point of attachment. NMeF = CN[C@@H](Cc1ccccc1)C(=O)O; NMeI = CC[C@H](C)[C@H](NC)C(=O)O; NMeL = CN[C@@H](CC(C)C)C(=O)O; NMeV = CN[C@H](C(=O)O)C(C)C; NMeA = CN[C@@H](C)C(=O)O; Piperidide = C1CCN(*)CC1; Sar = CNCC(=O)O; tBu = CC(C)(C)*
Write the answer as a number in µL/min/mg, unit excluded.

{"columns": ["COMPOUND", "UNIT TEXT", "microsomal CLint at 1 uM"],
 "data": [
  ["CC[C@H](C)[C@H]1C(=O)N(C)[C@@H](CC(C)C)C(=O)NCC(=O)N(C)[C@@H](C)C(=O)N[C@@H](Cc2ccccc2)C(=O)N[C@@H]([C@@H](C)O)C(=O)N(C)[C@@H](CC(C)C)C(=O)N[C@@H](Cc2ccccc2)C(=O)N(C)[C@@H](C(C)C)C(=O)N[C@H](C(=O)N2CCCCC2)CC(=O)N[C@@H](C)C(=O)N[C@@H](CC(C)C)C(=O)N1C [DP-8] (AL[NMeI][NMeL]G[NMeA]FT[NMeL]F[NMeV]D-Piperidide; lactam N-12)", "µL/min/mg", 36]
]}

## Input Which measured microsomal CLint at 1 uM value corresponds to CC(C)C[C@H]1C(=O)N[C@@H](COC(C)(C)C)C(=O)N[C@H](C(=O)N2CCCCC2)CC(=O)N[C@@H](C)C(=O)N(C)[C@@H](C)C(=O)N(C)[C@@H](Cc2ccccc2)C(=O)N(C)[C@@H](CC(C)C)C(=O)N[C@@H]([C@@H](C)O)C(=O)N(C)CC(=O)N1C [DP-38] (A[NMeA][NMeF][NMeL]T[Sar][NMeL]S(tBu)D-Piperidide; lactam N-9) ?
## Output 55
